system: A498 renal; experiment: NCI tumour cell line growth inhibition, 48 h; in the data active means GI50 below about 0.43 µM; inactive means the rest
Classes used: label 1 for active, label 0 for inactive

[
  {
    "compound": "N#Cc1cnn(C(=O)c2nn(-c3ccc(Cl)cc3)cc2O)c1N",
    "class-name": "label 1"
  },
  {
    "compound": "CC[C@H](C)[C@H](NC(=O)CN(C)C)C(=O)N(C)[C@H](C[C@@H](OC(C)=O)c1nc(C(=O)NC23C4C5C2C2C3C4C52C(=O)OC)cs1)C(C)C (stereo partly drawn)",
    "class-name": "label 0"
  },
  {
    "compound": "Nc1nc(SCC#CCCl)c2[nH]cnc2n1",
    "class-name": "label 0"
  },
  {
    "compound": "CC1OC(O[C@@H]2C=C3CC[C@@H]4[C@H](CC[C@]5(C)[C@@H](c6ccc(=O)oc6)CC[C@]45O)[C@@]3(C)CC2)C(O)C(O)C1O (stereo partly drawn)",
    "class-name": "label 1"
  },
  {
    "compound": "COc1cc(C2c3cc4c(cc3[C@@H](Nc3ccc(F)cc3)C3COC(=O)[C@H]23)OCO4)cc(OC)c1O (stereo partly drawn)",
    "class-name": "label 0"
  },
  {
    "compound": "CSc1ccc(-c2cn3ccsc3n2)cc1",
    "class-name": "label 0"
  },
  {
    "compound": "CC(=O)[CH-]C(=O)c1ccccc1.CC(=O)[CH-]C(=O)c1ccccc1.Cl.[O-]CCc1ccccn1.[O-]CCc1ccccn1.[Ti+4]",
    "class-name": "label 0"
  },
  {
    "compound": "N#Cc1ccc2c(-c3ccnc(NC4CC4)n3)c(-c3ccc(F)cc3)nn2c1",
    "class-name": "label 0"
  },
  {
    "compound": "COc1cccc(/C=C\\C(=O)c2ccccc2)c1",
    "class-name": "label 0"
  },
  {
    "compound": "COc1cc(/C=N/NC(=O)c2cnn3c2NC(c2ccccc2)C3)ccc1OCc1ccccc1 (stereo not drawn)",
    "class-name": "label 1"
  },
  {
    "compound": "CCCCCn1sc(=O)n(Cc2ccc(CNC(=O)C(C)c3ccc(CC(C)C)cc3)cc2)c1=O (stereo not drawn)",
    "class-name": "label 0"
  },
  {
    "compound": "COc1ccc(/C=C\\c2cc(OC)c(OC)c(OC)c2)cc1NC(=O)/C=C/c1cc(OC)c(OC)c(OC)c1",
    "class-name": "label 0"
  },
  {
    "compound": "COC(=O)c1sc(-n2cnc3cc(OC)c(OC)cc32)cc1OCc1ccccc1C(F)(F)F",
    "class-name": "label 0"
  },
  {
    "compound": "COc1cc(/C=N\\Nc2ccccc2)ccc1OC(=O)c1ccccc1",
    "class-name": "label 0"
  },
  {
    "compound": "O=C(NCCN1CCOCC1)c1cc2c(Oc3ccc(NC(=O)C4(C(=O)Nc5ccc(F)cc5)CC4)cc3)ccnc2[nH]1",
    "class-name": "label 0"
  },
  {
    "compound": "O=C(O)CN(CCN(CC(=O)O)CC(=O)O)CC(=O)O.[Cu+2].[Na+]",
    "class-name": "label 0"
  },
  {
    "compound": "O=C1c2ccc3c4c(ccc(c24)C(=O)N1CCCCO)C(=O)N(CCCCO)C3=O",
    "class-name": "label 0"
  },
  {
    "compound": "Cc1ccc2nc(CN(CCN(Cc3nc4ccc(C)cc4[nH]3)Cc3nc4ccc(C)cc4[nH]3)Cc3nc4ccc(C)cc4[nH]3)[nH]c2c1",
    "class-name": "label 0"
  }
]
